testedSystem: PD-1/PD-L1 interaction (PD-1-Ig / PD-L1-His) (Homo sapiens, UniProt Q9NZQ7)
Construct: hPDL1(18-239)-TVMV-His; TVMV protease site linker (C); made in house; host or cells: HEK293T
Sequence (Q9NZQ7 with tags, fused parts or gaps): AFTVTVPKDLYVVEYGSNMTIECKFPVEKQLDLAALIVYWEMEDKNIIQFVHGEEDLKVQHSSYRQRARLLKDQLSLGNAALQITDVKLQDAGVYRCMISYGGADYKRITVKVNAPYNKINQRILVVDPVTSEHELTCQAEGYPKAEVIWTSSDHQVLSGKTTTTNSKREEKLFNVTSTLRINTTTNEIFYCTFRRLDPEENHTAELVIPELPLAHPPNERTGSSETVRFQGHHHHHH
assayRemarks: PD-1/PD-L1 Homogenous Time-Resolved Fluorescence (HTRF) binding assay
testContext: IC50 range class; PD-L1-His 10 nM, PD-1-Ig 20 nM; read-out: Range or IC50
measuredProperty: IC50

>>> reportedvalue("CN1CCN(C(=O)c2cc(Cl)c(OCc3cccc(-c4cccc(COc5cc(OCc6cncc(C#N)c6)c(C(=O)N6CCN(C)CC6)cc5Cl)c4Cl)c3Cl)cc2OCc2cncc(C#N)c2)CC1")
"0.04 to 20 nM"
>>> reportedvalue("CC(CO)(NCc1cc(Cl)c(OCc2cccc(-c3cccc(COc4cc(OCc5cncc(C#N)c5)c(CNC(C)(CO)C(=O)O)cc4Cl)c3Cl)c2Cl)cc1OCc1cncc(C#N)c1)C(=O)O (stereo not drawn)")
"0.04 to 20 nM"
>>> reportedvalue("COC(=O)CC(O)CNCc1cc(Cl)c(OCc2cccc(-c3cccc(COc4cc(OCc5cncc(C#N)c5)c(CNCC(O)CC(=O)OC)cc4Cl)c3C)c2C)cc1OCc1cncc(C#N)c1 (stereo not drawn)")
"0.04 to 20 nM"

====

testedSystem: PD-1/PD-L1 interaction (PD-1-Ig / PD-L1-His) (Homo sapiens)
Construct: hPDL1(18-239)-TVMV-His; TVMV protease site linker (C); made in house; host or cells: HEK293T
assayRemarks: PD-1/PD-L1 Homogenous Time-Resolved Fluorescence (HTRF) binding assay
testContext: IC50 range class; PD-L1-His 10 nM, PD-1-Ig 20 nM; read-out: Range or IC50
pIC50: −log10 of the molar value.
# Lookup of reported pIC50 keyed by entry
measuredProperty: pIC50

>>> reportedvalue("Cc1c(OCCCN2CC[C@@H](O)C2)cccc1-c1ccc2c(c1)OC(CCN1CC[C@@H](O)C1)CO2 (single isomer, unassigned) [Example 3030]")
"7.70 to 10.40"
>>> reportedvalue("Cc1c(OCCCN2CC[C@@H](O)C2)cccc1-c1cccc(OCCCN2CC[C@@H](O)C2)c1C [Example 3001]")
"7.70 to 10.40"
>>> reportedvalue("Cc1c(COc2cc(OCc3cncc(C#N)c3)c(CN(Cc3cncs3)C(CCO)C(=O)O)cc2Cl)cccc1-c1cccc(COc2cc(OCc3cncc(C#N)c3)c(CN(Cc3cncs3)C(CCO)C(=O)O)cc2Cl)c1C (stereo not drawn) [Example 40990]")
"7.70 to 10.40"
>>> reportedvalue("O[C@@H]1CCN(CCC2COc3ccc(-c4ccc5c(c4)OC(CCN4CC[C@@H](O)C4)CO5)cc3O2)C1 (stereo partly drawn) [Example 3032]")
"7.05 to 7.70"
>>> reportedvalue("Cc1c(OCCCN[C@H](CO)[C@H](O)c2ccccc2)cccc1-c1cccc(OCCCN[C@H](CO)[C@H](O)c2ccccc2)c1C [Example 2097]")
"6.00 to 7.05"
>>> reportedvalue("Cc1c(COc2cc(OCc3cncc(C#N)c3)c(CNC(C)(CO)CO)cc2Cl)cccc1-c1cccc(COc2cc(OCc3cncc(C#N)c3)c(CNC(C)(CO)CO)cc2Cl)c1C [Example 40250]")
"7.70 to 10.40"
